# tested-target: PI3Kβ (Homo sapiens, UniProt P42338)
# Construct: His tag (pFastbac HTa vector) (N); FLAG (N); made in house; host or cells: Sf21 insect cells (baculovirus)
# Sequence (P42338 whole entry): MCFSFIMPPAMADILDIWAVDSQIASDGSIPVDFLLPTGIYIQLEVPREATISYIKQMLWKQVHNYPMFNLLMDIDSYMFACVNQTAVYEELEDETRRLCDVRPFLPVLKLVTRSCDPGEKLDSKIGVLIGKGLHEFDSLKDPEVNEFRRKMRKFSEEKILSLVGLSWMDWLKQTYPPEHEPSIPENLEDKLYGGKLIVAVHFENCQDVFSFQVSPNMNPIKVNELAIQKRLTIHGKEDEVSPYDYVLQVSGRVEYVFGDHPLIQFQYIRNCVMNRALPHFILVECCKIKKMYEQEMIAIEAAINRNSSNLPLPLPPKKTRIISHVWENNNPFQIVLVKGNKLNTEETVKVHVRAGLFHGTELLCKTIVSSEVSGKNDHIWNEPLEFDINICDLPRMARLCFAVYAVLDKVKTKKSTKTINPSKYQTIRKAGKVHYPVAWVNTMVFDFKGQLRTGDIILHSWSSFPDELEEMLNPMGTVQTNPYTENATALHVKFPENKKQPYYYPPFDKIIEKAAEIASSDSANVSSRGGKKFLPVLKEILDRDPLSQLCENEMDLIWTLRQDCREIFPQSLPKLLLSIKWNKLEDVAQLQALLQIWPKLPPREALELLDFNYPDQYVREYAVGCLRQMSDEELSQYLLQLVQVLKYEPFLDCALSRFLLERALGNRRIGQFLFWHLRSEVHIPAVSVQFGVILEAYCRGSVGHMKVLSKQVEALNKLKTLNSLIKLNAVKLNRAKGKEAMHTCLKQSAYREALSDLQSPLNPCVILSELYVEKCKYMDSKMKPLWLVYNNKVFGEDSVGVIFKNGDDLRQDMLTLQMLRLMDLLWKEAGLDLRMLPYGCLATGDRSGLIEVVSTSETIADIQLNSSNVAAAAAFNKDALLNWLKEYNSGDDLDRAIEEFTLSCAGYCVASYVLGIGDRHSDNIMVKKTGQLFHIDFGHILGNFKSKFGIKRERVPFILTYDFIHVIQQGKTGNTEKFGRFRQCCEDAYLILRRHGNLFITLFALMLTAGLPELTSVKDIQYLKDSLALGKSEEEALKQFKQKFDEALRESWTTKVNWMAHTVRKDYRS
# Sequence (P27986 whole entry partner): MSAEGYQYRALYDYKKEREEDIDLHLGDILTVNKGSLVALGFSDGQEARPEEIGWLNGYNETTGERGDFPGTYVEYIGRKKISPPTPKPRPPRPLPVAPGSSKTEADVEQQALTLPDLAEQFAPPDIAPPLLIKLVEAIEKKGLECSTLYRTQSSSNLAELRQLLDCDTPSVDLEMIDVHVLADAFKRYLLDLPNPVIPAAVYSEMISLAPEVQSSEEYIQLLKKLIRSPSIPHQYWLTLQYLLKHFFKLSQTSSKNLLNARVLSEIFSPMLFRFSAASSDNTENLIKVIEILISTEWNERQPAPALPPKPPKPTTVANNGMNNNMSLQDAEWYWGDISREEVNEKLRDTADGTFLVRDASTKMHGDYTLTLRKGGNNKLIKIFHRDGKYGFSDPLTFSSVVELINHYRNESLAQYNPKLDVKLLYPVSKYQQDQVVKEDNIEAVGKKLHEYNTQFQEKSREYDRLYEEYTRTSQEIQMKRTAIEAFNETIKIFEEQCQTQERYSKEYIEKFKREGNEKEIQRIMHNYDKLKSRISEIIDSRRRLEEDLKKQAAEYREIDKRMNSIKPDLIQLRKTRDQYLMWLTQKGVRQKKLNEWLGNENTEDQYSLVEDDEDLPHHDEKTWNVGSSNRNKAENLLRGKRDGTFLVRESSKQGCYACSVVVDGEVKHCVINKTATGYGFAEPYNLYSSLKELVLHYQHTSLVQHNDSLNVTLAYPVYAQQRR
# method-notes: Biochemical assay of PI3K potency and selectivity using 20 μM ATP, Beta
# settings: 20 μM ATP; read-out: Beta IC50
Please go through the items and note down their log10 IC50.
Note: values are log10 of IC50 expressed in µM.

Worked cases, log10 IC50 given:
compound | log10 IC50
Cc1ccccc1-n1c(CSc2ncnc3[nH]cnc23)nc2cccc(Cl)c2c1=O | 1.04
Nc1ncnc2c1ncn2Cc1nc2cccc(Cl)c2c(=O)n1-c1ccccc1-c1ccccc1 | 0.70
O=c1c2c(Cl)cccc2nc(CSc2ncnc3[nH]cnc23)n1-c1ccccc1F | 1.74
O=c1c2cc(F)ccc2nc(CSc2ncnc3[nH]cnc23)n1-c1ccccc1Cl | 1.11
Cc1cccc2nc(CSc3ncnc4[nH]cnc34)n(-c3c(Cl)cccc3Cl)c(=O)c12 | 1.04

List the reported log10 IC50 of each compound below.
1. Cc1cccc2nc(CSc3ncnc4[nH]cnc34)n(-c3ccccc3F)c(=O)c12
2. O=c1c2cc3ccccc3cc2nc(CSc2ncnc3[nH]cnc23)n1-c1ccccc1Cl
3. Cc1cccc2nc(CSc3ncnc4[nH]cnc34)n(-c3ccccc3C(C)C)c(=O)c12

[1.00, 2.02, 0.48]

====

# tested-target: PI3Kβ (Homo sapiens, UniProt P42338)
# Construct: His tag (pFastbac HTa vector) (N); FLAG (N); made in house; host or cells: Sf21 insect cells (baculovirus)
# method-notes: Biochemical assay using 200 μM ATP, Beta
result-type: Beta/Delta Ratio
One number for each entry.

Worked cases, Beta/Delta Ratio given:
molecule | Beta/Delta Ratio
CC(=O)O.O=c1c2ccccc2nc(CSc2ncnc3[nH]cnc23)n1N1CCOCC1 [Compound D-039] | 50
Cc1cccc2nc(Cn3cnc4c(N)ncnc43)n(-c3ccccc3F)c(=O)c12 [Compound D-048] | 70
O=c1c2cc(F)c(F)cc2nc(CSc2ncnc3[nH]cnc23)n1-c1ccccc1Cl [Compound D-027] | 26
Cc1cccc2nc(Cn3cnc4c(N)ncnc43)n(-c3ccccc3Cl)c(=O)c12 [Compound D-007] | 99
O=c1c2ccccc2nc(CSc2ncnc3[nH]cnc23)n1-c1ccccc1 [Compound D-121] | 138
O=c1c2ccccc2nc(CSc2ncnc3[nH]ncc23)n1-c1ccccc1Cl [Compound D-999, reference compound] | 2
O=c1c2ccccc2nc(CSc2ncnc3[nH]cnc23)n1-c1ccccc1Cl [Compound D-000] | 84
Nc1ncnc2c1ncn2Cc1nc2cccc(F)c2c(=O)n1-c1ccccc1Cl [Compound D-005] | 16

List the reported Beta/Delta Ratio of each molecule below.
1. O=c1c2c(Cl)cccc2nc(CSc2ncnc3[nH]cnc23)n1-c1ccccc1-c1ccccc1 [Compound D-013]
2. Nc1ncnc2c1ncn2Cc1nc2cccc(Cl)c2c(=O)n1-c1ccccc1Cl [Compound D-006]
3. Cc1cccc2nc(Cn3cnc4c(N)ncnc43)n(-c3ccccc3C(C)C)c(=O)c12 [Compound D-029]
4. Cc1cccc2nc(CSc3ncnc4[nH]cnc34)n(-c3ccccc3C(C)C)c(=O)c12 [Compound D-035]
5. O=c1c2cc(F)ccc2nc(CSc2ncnc3[nH]cnc23)n1-c1ccccc1Cl [Compound D-028]
6. O=c1c2c(F)cccc2nc(CSc2ncnc3[nH]cnc23)n1-c1ccccc1Cl [Compound D-015]
7. Cc1cccc2nc(CSc3ncnc4[nH]cnc34)n(-c3c(Cl)cccc3Cl)c(=O)c12 [Compound D-034]

289
48
101
69
101
154
85

List the reported Beta/Delta Ratio of each molecule below.
1. O=c1c2c(Cl)cccc2nc(CSc2ncnc3[nH]cnc23)n1-c1ccccc1F [Compound D-011]
2. COc1ccccc1-n1c(CSc2ncnc3[nH]cnc23)nc2cccc(C)c2c1=O [Compound D-047]
3. Nc1ncnc2c1ncn2Cc1nc2cccc(Cl)c2c(=O)n1-c1ccccc1F [Compound D-012]

[420, 150, 83]

List the reported Beta/Delta Ratio of each molecule below.
1. CCCCn1c(CSc2ncnc3[nH]cnc23)nc2ccccc2c1=O [Compound D-038]
2. O=c1c2ccccc2nc(CSc2ncnc3[nH]cnc23)n1Cc1ccccc1 [Compound D-037]
3. Cc1ccccc1-n1c(CSc2ncnc3[nH]cnc23)nc2cccc(Cl)c2c1=O [Compound D-010]

[82, 33, 144]
